B1: VH:VL chains; a variant is named by its letters at X, in order (parent)
chain 1: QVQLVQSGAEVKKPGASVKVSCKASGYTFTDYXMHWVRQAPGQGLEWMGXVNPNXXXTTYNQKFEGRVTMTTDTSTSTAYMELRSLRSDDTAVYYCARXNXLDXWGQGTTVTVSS
chain 2: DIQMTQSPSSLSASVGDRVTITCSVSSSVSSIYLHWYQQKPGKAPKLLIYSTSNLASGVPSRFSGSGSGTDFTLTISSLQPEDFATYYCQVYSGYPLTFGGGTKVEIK

Variants of: B1
Assay: yeast display scFab, FACS + sequencing
OUTCOME_MEASURE: non-specific binding call

VARIANT_NOTATION	MEASUREMENT
SETGGAGD	no binding
SGRGNAGD	no binding
VAAKSAAA chain 1 R38K	no binding
DAGRGDGF	no binding
VRGTGFGA	binds
DTGRADWA	no binding
FKTKSAGD	no binding
YRGAGAGS	binds

Supply non-specific binding call value. Item: `YKEKGAVD`
binds

Supply non-specific binding call value. Item: `VKGRSDAS`
no binding

Supply non-specific binding call value. Item: `VRERGDWV`
no binding
